Recorded Activity by entry
Test system: Rattus norvegicus
protocol_description: Antipsychotic activity was evaluated by rat CAR assay at dose 15 mg/kg (i.p.)
Assay type: functional
test_context: route intraperitoneal

compound: CN1CCc2cc(O)c(O)c3c2c(cn3-c2ccc(F)cc2)C1
tested_system: Rattus norvegicus
Activity: 40%
//
compound: COc1cc2c3c(c1OC)N(c1ccc(F)cc1)CC3CNCC2 (centres undefined)
tested_system: Rattus norvegicus
Activity: 90%
//
compound: CN1CCc2cc(O)c(O)c3c2C(C1)CN3c1ccc(F)cc1 (centres undefined)
tested_system: Rattus norvegicus
Activity: 32%
//
compound: CN1CCc2cccc3c2c(cn3-c2ccc(F)cc2)C1
tested_system: Rattus norvegicus
Activity: 15%
